These measurements were taken from paper PMC8119466.

experimental-target: recombinant PRL-3 (Homo sapiens, UniProt O75365)
Construct: 6xHis (N, cleaved yes); made in house; host or cells: E. coli One Shot BL21 Star
Sequence (O75365 whole entry): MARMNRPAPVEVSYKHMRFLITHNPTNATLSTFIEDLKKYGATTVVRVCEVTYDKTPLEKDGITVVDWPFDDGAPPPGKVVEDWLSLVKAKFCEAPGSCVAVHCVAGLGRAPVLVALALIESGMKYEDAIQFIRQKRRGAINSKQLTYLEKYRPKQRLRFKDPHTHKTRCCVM
test-name: In vitro phosphatase assay (DiFMUP hydrolysis), PRL-3; also: test concentration or dose not given here
Format: biochemical
conditions-used: FDA-approved drug screen; compared to DMSO
Structures can show the parent of a compound that is named as a salt.
Quick list: % Phosphatase Activity (compared to DMSO) PRL-3 per entry.
quantity-measured: % Phosphatase Activity (compared to DMSO) PRL-3 (%)

{"compound": "CC(CN1c2ccccc2Sc2ccccc21)N(C)C.Cl (centres unmarked) [Promethazine HCl]", "readout-unit": "%", "value-reported": 77}
{"compound": "CCCCNc1cc(C(=O)O)cc(S(N)(=O)=O)c1Oc1ccccc1 [Bumetanide]", "readout-unit": "%", "value-reported": 98}
{"compound": "Cc1ccc(Cl)c(Nc2ccccc2C(=O)O)c1Cl [Meclofenamate Sodium]", "readout-unit": "%", "value-reported": 81}
{"compound": "CCC(=O)OCC(=O)[C@@]1(OC(=O)CC)[C@@H](C)C[C@H]2[C@@H]3CCC4=CC(=O)C=C[C@]4(C)[C@@]3(Cl)[C@@H](O)C[C@@]21C [Beclomethasone dipropionate]", "readout-unit": "%", "value-reported": 90}
{"compound": "COc1ccccc1OCC(O)CN1CCN(CC(=O)Nc2c(C)cccc2C)CC1.Cl.Cl (centres unmarked) [Ranolazine 2HCl]", "readout-unit": "%", "value-reported": 97}
{"compound": "CN(C)CCC[C@@]1(c2ccc(F)cc2)OCc2cc(C#N)ccc21 [Escitalopram Oxalate]", "readout-unit": "%", "value-reported": 67}
{"compound": "CCN(CC)CCOC(=O)c1ccc(N)cc1 [Procaine]", "readout-unit": "%", "value-reported": 80}
{"compound": "O=C1CN(/N=C/c2ccc(-c3ccc([N+](=O)[O-])cc3)o2)C(O)=N1 [Dantrolene sodium]", "readout-unit": "%", "value-reported": 60}
{"compound": "CCC(=O)NS(=O)(=O)c1ccc(-c2c(-c3ccccc3)noc2C)cc1", "readout-unit": "%", "value-reported": 74}
{"compound": "Cl.NCCc1c[nH]c2ccc(O)cc12 [Serotonin HCl]", "readout-unit": "%", "value-reported": 80}
{"compound": "Cc1ccc(C)c(OCCCC(C)(C)C(=O)O)c1", "readout-unit": "%", "value-reported": 76}
{"compound": "CCCCC(=O)O[C@]1(C(=O)CO)[C@@H](C)C[C@H]2[C@@H]3CCC4=CC(=O)C=C[C@]4(C)[C@@]3(F)[C@@H](O)C[C@@]21C [Betamethasone valerate (Betnovate)]", "readout-unit": "%", "value-reported": 79}
{"compound": "CC(=O)OC1CN2CCC1CC2 (centres unmarked) [Aceclidine HCl]", "readout-unit": "%", "value-reported": 85}
{"compound": "CC(C(=O)[O-])c1cccc(Oc2ccccc2)c1.CC(C(=O)[O-])c1cccc(Oc2ccccc2)c1.[Ca+2] (centres unmarked)", "readout-unit": "%", "value-reported": 95}
{"compound": "COc1ccc(-c2ccc3cc(C(=O)O)ccc3c2)cc1C12CC3CC(CC(C3)C1)C2", "readout-unit": "%", "value-reported": 68}
{"compound": "OC[C@H]1OC(O)[C@H](O)[C@@H](O)[C@@H]1O (some centres unmarked)", "readout-unit": "%", "value-reported": 79}
{"compound": "C[C@@H]1C[C@H]2[C@@H]3CCC4=CC(=O)C=C[C@]4(C)[C@@]3(Cl)[C@@H](O)C[C@]2(C)[C@@]1(OC(=O)c1ccco1)C(=O)CCl [Mometasone furoate]", "readout-unit": "%", "value-reported": 77}
{"compound": "Cc1nnc(SCC2=C(C(=O)O)N3C(=O)[C@@H](NC(=O)Cn4cnnn4)[C@H]3SC2)s1 [Cefazolin Sodium]", "readout-unit": "%", "value-reported": 88}
{"compound": "Cn1cnc2c(F)c(Nc3ccc(Br)cc3F)c(C(=O)NOCCO)cc21", "readout-unit": "%", "value-reported": 91}
{"compound": "COC(=O)C1=C(C)NC(C)=C(C(=O)OCCN(C)Cc2ccccc2)C1c1cccc([N+](=O)[O-])c1 (centres unmarked) [Nicardipine HCl]", "readout-unit": "%", "value-reported": 68}
{"compound": "CC1=C(C(=O)OC(C)C)C(c2cccc([N+](=O)[O-])c2)C(C(=O)OC2CN(C(c3ccccc3)c3ccccc3)C2)=C(N)N1 (centres unmarked)", "readout-unit": "%", "value-reported": 95}
{"compound": "CC1=C(/C=C/C(C)=C/C=C/C(C)=C\\C(=O)O)C(C)(C)CCC1", "readout-unit": "%", "value-reported": 57}
{"compound": "CCC1(C)CC(=O)NC1=O (centres unmarked) [Ethosuximide]", "readout-unit": "%", "value-reported": 79}
{"compound": "Nc1ccn([C@@H]2O[C@H](CO)[C@@H](O)C2(F)F)c(=O)n1 [Gemcitabine]", "readout-unit": "%", "value-reported": 77}
{"compound": "Cc1onc(-c2ccccc2)c1C(=O)N[C@@H]1C(=O)N2[C@@H]1SC(C)(C)[C@@H]2C(=O)[O-].O.[Na+] [Oxacillin sodium monohydrate]", "readout-unit": "%", "value-reported": 83}
{"compound": "OC(CCN1CCCC1)(c1ccccc1)C1CCCCC1 (centres unmarked) [Procyclidine HCl]", "readout-unit": "%", "value-reported": 95}
{"compound": "Br.COc1ccc2c(c1)[C@]13CCCC[C@@H]1[C@H](C2)N(C)CC3.O [Dextromethorphan (hydrobromide hydrate)]", "readout-unit": "%", "value-reported": 92}
{"compound": "Cl.NCC(O)c1ccc(O)cc1 (racemic) [(+,-)-Octopamine HCl]", "readout-unit": "%", "value-reported": 78}
{"compound": "CNC(=C[N+](=O)[O-])NCCSCc1csc(CN(C)C)n1", "readout-unit": "%", "value-reported": 97}
{"compound": "CC1(C)S[C@@H]2[C@H](NC(=O)[C@H](NC(=O)N3CCNC3=O)c3ccccc3)C(=O)N2[C@H]1C(=O)O [Azlocillin sodium salt]", "readout-unit": "%", "value-reported": 85}
{"compound": "CC(C)(Sc1cc(C(C)(C)C)c(O)c(C(C)(C)C)c1)Sc1cc(C(C)(C)C)c(O)c(C(C)(C)C)c1", "readout-unit": "%", "value-reported": 78}
{"compound": "Cc1cc(/C=C/C#N)cc(C)c1Nc1ccnc(Nc2ccc(C#N)cc2)n1", "readout-unit": "%", "value-reported": 136}
